These measurements were taken from the supplement of paper PMC10065799.

- System: c-Src
- Test Method Notes: phosphorylation enrichment, bacterial display (enrichment ratio); higher = better substrate or ligand; peptides without Tyr show the background;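 also: 11-residue human phosphosite peptides and single-mutation variants displayed on the E. coli surface, counted by deep sequencing, each peptide's frequency after selection divided by its frequency in the unselected input library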;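 also: frequency after pTyr selection over input frequency; kinase dosed for 20-30% of maximal phosphorylation in three min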
Quick rule for you: phosphorylation enrichment at 0.6 or higher means rule met, lower means rule not met.

{"Sequence Chain": "NTPNTYLRVNV [ADD2_Y440]", "Class Assignment": "rule not met"}
{"Sequence Chain": "RFMELYDLNRD [BBS2_Y648_YF]", "Class Assignment": "rule met"}
{"Sequence Chain": "KHCEDYVFSYN [DSC1_Y846_C848F]", "Class Assignment": "rule met"}
{"Sequence Chain": "RLKAKYPAATG [GLI3_Y933_A934P]", "Class Assignment": "rule met"}
{"Sequence Chain": "DGNTRYSTFSE [TKTL1_Y318_D315N]", "Class Assignment": "rule not met"}
{"Sequence Chain": "RWGQKYMTAVV [CYBA_Y72]", "Class Assignment": "rule not met"}

====

- Experimental System: Fyn (UniProt P06241)
- Sequence (P06241 whole entry, looked up): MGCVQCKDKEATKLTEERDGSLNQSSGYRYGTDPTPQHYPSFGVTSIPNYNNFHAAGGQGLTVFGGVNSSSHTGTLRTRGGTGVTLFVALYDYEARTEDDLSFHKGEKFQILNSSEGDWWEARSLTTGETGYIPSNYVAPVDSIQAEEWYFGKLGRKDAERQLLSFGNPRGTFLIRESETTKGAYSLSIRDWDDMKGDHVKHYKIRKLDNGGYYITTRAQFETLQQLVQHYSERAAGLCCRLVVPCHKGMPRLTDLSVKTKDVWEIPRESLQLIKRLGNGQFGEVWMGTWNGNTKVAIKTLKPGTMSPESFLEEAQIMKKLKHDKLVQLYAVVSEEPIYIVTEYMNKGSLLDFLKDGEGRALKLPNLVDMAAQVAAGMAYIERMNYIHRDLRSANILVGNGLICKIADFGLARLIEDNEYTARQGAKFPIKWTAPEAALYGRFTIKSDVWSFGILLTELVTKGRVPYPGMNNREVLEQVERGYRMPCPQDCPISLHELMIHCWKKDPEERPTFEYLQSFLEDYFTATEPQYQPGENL
- Test Method Notes: phosphorylation enrichment, bacterial display (enrichment ratio); higher = better substrate or ligand; peptides without Tyr show the background
Label 0.0 if phosphorylation enrichment falls below 0.5; label 1.0 in every other case.

{"Sequence Chain": "CNLDTYQKRLR [PLA2G2D_Y126_R121C]", "Class Assignment": 0.0}
{"Sequence Chain": "KPGLKYVTYGN [GALNTL5_Y404]", "Class Assignment": 0.0}
{"Sequence Chain": "VNCHQYDGLVE [ATP2A2_Y407]", "Class Assignment": 1.0}
{"Sequence Chain": "NTGNFYDLFGG [PTPN11_Y63_D61N_YF]", "Class Assignment": 1.0}
{"Sequence Chain": "KRISCYEARYQ [PFKFB3_Y194_S197R]", "Class Assignment": 0.0}
{"Sequence Chain": "SGDITYGQFAQ [PLCG1_Y210]", "Class Assignment": 1.0}
{"Sequence Chain": "EWLRGYLENGK [HLA-C_Y195_R194G]", "Class Assignment": 0.0}
{"Sequence Chain": "ADLVQYFMEHH [PTPN11_Y80_E76D_YF]", "Class Assignment": 1.0}
{"Sequence Chain": "RFMELYDLNRD [BBS2_Y648_YF]", "Class Assignment": 1.0}
{"Sequence Chain": "RIRRRYCQVLN [IQCF1_Y144]", "Class Assignment": 1.0}
{"Sequence Chain": "PVDNLYAEPAV [PRPS1_Y146]", "Class Assignment": 1.0}
{"Sequence Chain": "KAIMTYVSSFY [ACTN4_Y260]", "Class Assignment": 1.0}
{"Sequence Chain": "KTKLGYSPLHQ [ANK1_Y735]", "Class Assignment": 0.0}
{"Sequence Chain": "FGSSSYGGAGG [RPA2_Y14_YF]", "Class Assignment": 0.0}
{"Sequence Chain": "FSMGCYEISLG [HMGCL_Y198_YF]", "Class Assignment": 1.0}
{"Sequence Chain": "FSNVLYRPRGP [TMIGD2_Y197_A202P_YF]", "Class Assignment": 0.0}
{"Sequence Chain": "SDVDLYQVRIA [PSMD9_Y70_T74I]", "Class Assignment": 1.0}
{"Sequence Chain": "EPSLVYMVTKI [CPS1_Y768_D767V]", "Class Assignment": 1.0}
{"Sequence Chain": "KNRDVYSSDYF [USP24_Y2134]", "Class Assignment": 1.0}
{"Sequence Chain": "VPLATYMQIYK [RPL21_Y30_R32Q]", "Class Assignment": 1.0}
{"Sequence Chain": "VIKDKYPKVRF [APTX_Y209_A212V_YF]", "Class Assignment": 0.0}
{"Sequence Chain": "PVQAADQKVVA [HBB_Y131_Y131D]", "Class Assignment": 1.0}
{"Sequence Chain": "GSTLSYGRDGR [MATR3_Y158_P154S]", "Class Assignment": 0.0}
{"Sequence Chain": "HRGYLYLAIEY [TEK_Y899]", "Class Assignment": 0.0}
{"Sequence Chain": "ESSKAYERDLS [TTC37_Y1074_A1077D]", "Class Assignment": 0.0}
